# subject_of_test: Cytochrome P450 2D6 (Homo sapiens, UniProt P10635)
# Sequence (P10635 whole entry): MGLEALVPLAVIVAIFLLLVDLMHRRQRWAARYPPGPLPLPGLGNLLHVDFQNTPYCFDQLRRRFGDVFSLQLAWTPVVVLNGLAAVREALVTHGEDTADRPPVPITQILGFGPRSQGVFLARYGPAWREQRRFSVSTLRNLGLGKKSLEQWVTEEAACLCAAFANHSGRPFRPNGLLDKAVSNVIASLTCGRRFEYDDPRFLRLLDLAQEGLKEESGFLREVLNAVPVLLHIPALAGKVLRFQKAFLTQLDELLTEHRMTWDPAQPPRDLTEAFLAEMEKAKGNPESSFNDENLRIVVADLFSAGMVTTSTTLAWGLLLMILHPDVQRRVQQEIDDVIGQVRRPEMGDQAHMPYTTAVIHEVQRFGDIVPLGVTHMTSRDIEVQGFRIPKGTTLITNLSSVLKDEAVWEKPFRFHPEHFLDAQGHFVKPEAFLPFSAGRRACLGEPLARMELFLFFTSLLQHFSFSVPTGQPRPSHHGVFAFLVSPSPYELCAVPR
# test: Inhibition of CYP2D6 (unknown origin) compound co-incubated with substrate
# Type: ADME
pIC50: −log10 of the molar value.

compound	pIC50
COCCOc1ccccc1N1CCN(C(=O)C2(Oc3ccc(C(F)(F)F)cc3)CCCN(C(=O)c3cnccc3C(F)(F)F)C2)CC1.Cl (single isomer, unassigned)	< 4.52

###

# subject_of_test: Tumour suppressor p53/oncoprotein Mdm2 (Homo sapiens, UniProt Q00987)
# Sequence (P04637 whole entry): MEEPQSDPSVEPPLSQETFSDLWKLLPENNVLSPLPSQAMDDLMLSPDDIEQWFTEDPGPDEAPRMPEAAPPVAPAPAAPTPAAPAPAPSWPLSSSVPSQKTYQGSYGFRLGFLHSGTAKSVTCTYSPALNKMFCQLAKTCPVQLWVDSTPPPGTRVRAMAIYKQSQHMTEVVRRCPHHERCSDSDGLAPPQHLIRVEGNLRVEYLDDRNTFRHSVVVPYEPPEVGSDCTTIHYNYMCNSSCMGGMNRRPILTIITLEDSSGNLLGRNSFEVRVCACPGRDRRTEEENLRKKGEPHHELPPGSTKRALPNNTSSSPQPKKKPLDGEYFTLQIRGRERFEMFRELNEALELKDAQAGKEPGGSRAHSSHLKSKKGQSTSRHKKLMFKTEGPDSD
# Sequence (Q00987 whole entry): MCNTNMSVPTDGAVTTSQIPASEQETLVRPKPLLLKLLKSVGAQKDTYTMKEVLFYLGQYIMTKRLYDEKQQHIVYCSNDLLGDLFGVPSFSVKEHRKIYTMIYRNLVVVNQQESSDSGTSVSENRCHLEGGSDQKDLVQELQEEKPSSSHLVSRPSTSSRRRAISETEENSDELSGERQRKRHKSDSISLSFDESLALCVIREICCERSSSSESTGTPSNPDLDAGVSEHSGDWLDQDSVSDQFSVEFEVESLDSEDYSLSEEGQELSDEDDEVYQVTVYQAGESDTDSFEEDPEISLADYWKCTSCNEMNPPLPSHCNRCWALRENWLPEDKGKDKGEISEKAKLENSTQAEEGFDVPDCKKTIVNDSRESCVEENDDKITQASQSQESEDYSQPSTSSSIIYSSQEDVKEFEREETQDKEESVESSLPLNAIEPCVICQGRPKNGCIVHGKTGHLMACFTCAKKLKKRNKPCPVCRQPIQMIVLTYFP
# test: Inhibition of human MDM2/p53 interaction by fluorescence polarization assay
# log10 of IC50 per record follows
result_type: log10 of IC50 (log10 of the value in µM)

compound	value_reported
O=C(c1cnccc1C(F)(F)F)N1CCCC(Oc2ccc(C(F)(F)F)cc2)(C(=O)N2CCN(c3ncccn3)CC2)C1 (stereo not given)	1.54
O=C(c1cnccc1C(F)(F)F)N1CCCC(Oc2ccccc2Cl)(C(=O)N2CCN(c3ccccn3)CC2)C1 (stereo not given)	1.32
CCOc1ccccc1N1CCN(C(=O)C2(Oc3ccc(C(F)(F)F)cc3)CCCN(C(=O)c3cnccc3C(F)(F)F)C2)CC1 (stereo not given)	-0.23
O=C(c1cnccc1C(F)(F)F)N1CCCC(Oc2ccc(Cl)cc2)(C(=O)N2CCN(c3ccccn3)CC2)C1 (stereo not given)	0.83
CN(C)CC(=O)Nc1ccccc1N1CCN(C(=O)C2(Oc3ccc(C(F)(F)F)cc3)CCCN(C(=O)c3cnccc3C(F)(F)F)C2)CC1 (stereo not given)	-0.17
COCC(=O)Nc1ccccc1N1CCN(C(=O)C2(Oc3ccc(C(F)(F)F)cc3)CCCN(C(=O)c3cnccc3C(F)(F)F)C2)CC1 (stereo not given)	-0.27
Cc1cc(CC(=O)Nc2ccccc2N2CCN(C(=O)C3(Oc4ccc(C(F)(F)F)cc4)CCCN(C(=O)c4cnccc4C(F)(F)F)C3)CC2)on1 (stereo not given)	-0.20
CCC(=O)Nc1ccccc1N1CCN(C(=O)C2(Oc3ccc(C(F)(F)F)cc3)CCCN(C(=O)c3cnccc3C(F)(F)F)C2)CC1 (stereo not given)	-0.43
O=C(c1cnccc1C(F)(F)F)N1CCCC(Oc2ccc(Br)c(F)c2)(C(=O)N2CCN(c3ccccn3)CC2)C1 (stereo not given)	0.46
O=C(c1cnccc1C(F)(F)F)N1CCCC(Oc2ccc(C(F)(F)F)cc2)(C(=O)N2CCN(Cc3ccccc3)CC2)C1 (stereo not given)	1.59
O=C(N1CCN(c2ccccn2)CC1)C1(Oc2ccc(C(F)(F)F)cc2)CCCN(S(=O)(=O)c2ccccc2Cl)C1 (stereo not given)	1.49
O=C(N1CCN(c2ccccn2)CC1)C1(Oc2ccc(C(F)(F)F)cc2)CCCN(C(=O)C2(c3ccc(Cl)cc3)CC2)C1 (stereo not given)	0.28
O=C(N1CCN(c2ccccn2)CC1)C1(Oc2ccc(C(F)(F)F)cc2)CCCN(CC2CCCCC2)C1 (stereo not given)	0.71
O=C(CC1NC(=O)NC1=O)Nc1ccccc1N1CCN(C(=O)C2(Oc3ccc(C(F)(F)F)cc3)CCCN(C(=O)c3cnccc3C(F)(F)F)C2)CC1 (stereo not given)	-0.57
CC(C)(C)C(=O)N1CCCC(Oc2ccc(C(F)(F)F)cc2)(C(=O)N2CCN(c3ccccn3)CC2)C1 (stereo not given)	1.34
CC(C)S(=O)(=O)N1CCCC(Oc2ccc(C(F)(F)F)cc2)(C(=O)N2CCN(c3ccccn3)CC2)C1 (stereo not given)	0.84
O=C(N1CCN(c2ccccn2)CC1)C1(Oc2ccc(C(F)(F)F)cc2)CCCN(S(=O)(=O)c2ccccc2C(F)(F)F)C1 (stereo not given)	1.61
O=C(c1cnccc1C(F)(F)F)N1CCCC(Oc2ccc(-c3ccccc3)cc2)(C(=O)N2CCN(c3ccccn3)CC2)C1 (stereo not given)	1.68
O=C(c1cnccc1C(F)(F)F)N1CCCC(Oc2ccc(C(F)(F)F)cc2)(C(=O)N2CCN(c3ccccc3O)CC2)C1 (stereo not given)	-0.01
O=C(N1CCN(c2ccccn2)CC1)C1(Oc2ccc(C(F)(F)F)cc2)CCCN(Cc2ccccc2C(F)(F)F)C1 (stereo not given)	1.15
O=C(c1cnccc1C(F)(F)F)N1CCCC(Oc2ccc(C(F)(F)F)cc2)(C(=O)N2CCN(c3ccccn3)CC2)C1 (stereo not given)	0.36
O=C(c1cnccc1C(F)(F)F)N1CCCC(Oc2ccc(C(F)(F)F)cc2)(C(=O)NCc2ccc(Cl)cc2)C1 (stereo not given)	0.18
CC(C)(C)CCN1CCCC(Oc2ccc(C(F)(F)F)cc2)(C(=O)N2CCN(c3ccccn3)CC2)C1 (stereo not given)	0.84
CN(C)CCC(=O)Nc1ccccc1N1CCN(C(=O)C2(Oc3ccc(C(F)(F)F)cc3)CCCN(C(=O)c3cnccc3C(F)(F)F)C2)CC1 (stereo not given)	-0.23
CC(C)(C)CC(=O)N1CCCC(Oc2ccc(C(F)(F)F)cc2)(C(=O)N2CCN(c3ccccn3)CC2)C1 (stereo not given)	0.48
COc1ccc(OC2(C(=O)N3CCN(c4ccccn4)CC3)CCCN(C(=O)c3cnccc3C(F)(F)F)C2)cc1 (stereo not given)	1.52
O=C(N1CCN(c2ccccn2)CC1)C1(Oc2ccc(C(F)(F)F)cc2)CCCN(S(=O)(=O)c2ccccc2)C1 (stereo not given)	1.41
O=C(c1cnccc1C(F)(F)F)N1CCCC(Oc2ccc(C(F)(F)F)cc2)(C(=O)N2CCN(c3ccccc3)CC2)C1 (stereo not given)	0.45
O=C(c1cnccc1C(F)(F)F)N1CCCC(Oc2ccc(Br)cc2)(C(=O)N2CCN(c3ccccn3)CC2)C1 (stereo not given)	0.28
